- Test target: T1, recombinant cynomolgus ApoC3 (cynomolgus monkey, UniProt P18659 21-99, biotinylated in the captured-antigen assays (Tables 6 and 8); sites not stated)
- T1 construct: No cleavage site is stated, so none is applied; also called rcyApoC3; bio-rcyApoC3
- T1 sequence (P18659 21-99 limits assumed): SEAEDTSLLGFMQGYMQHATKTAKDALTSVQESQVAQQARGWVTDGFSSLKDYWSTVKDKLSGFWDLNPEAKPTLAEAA
- Test details: SPR, biotinylated antigen captured on SA chip, scFv periplasmic extract injected, pH 7.4
koff reference
Assay readout: koff (s⁻¹)

Binder	Assay readout	Unit label	Quantitative result
29A05 scFv (scFv, part only; not given: scFv linker, domain order, c-myc tag, V domains shown, not shown: another chain or arm of the molecule; small tags and cut ends) VH: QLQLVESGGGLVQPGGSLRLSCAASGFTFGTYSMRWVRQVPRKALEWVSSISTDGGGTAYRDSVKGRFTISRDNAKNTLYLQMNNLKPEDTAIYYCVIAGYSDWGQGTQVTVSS VL: DVVLTQTPGSLSVVPGESASISCKASQSLVYSDGKTYLYWLLQKPGQSPQRLIYQVSNRDSGVPDRFTGSGSGTDFTLKISGVKVEDAGVYYCAQGTYWPKTFGQGTKLEIK	koff	s⁻¹	0.0146
5E5 WT scFv (scFv, part only; not given: scFv linker, domain order, c-myc tag, V domains shown, not shown: another chain or arm of the molecule; small tags and cut ends) VH: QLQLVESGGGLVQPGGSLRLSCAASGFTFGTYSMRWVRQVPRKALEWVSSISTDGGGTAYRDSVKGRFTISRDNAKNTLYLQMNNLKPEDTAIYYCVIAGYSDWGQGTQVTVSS VL: ATMLTQSPGSLSVVPGESASISCKTSQGLVHSDGKTYFYWFLQKPGQSPQQLIYQVSNRASGVPDRFTGSGSGTDFTLKISGVKAEDAGVYYCAQGTYYPHTFGSGTRLEIK	koff	s⁻¹	0.0391
29G11 scFv (scFv, part only; not given: scFv linker, domain order, c-myc tag, V domains shown, not shown: another chain or arm of the molecule; small tags and cut ends) VH: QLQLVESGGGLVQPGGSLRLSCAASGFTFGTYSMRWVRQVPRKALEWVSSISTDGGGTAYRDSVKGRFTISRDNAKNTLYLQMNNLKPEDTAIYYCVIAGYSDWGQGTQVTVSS VL: DVVLTQTPGSLSVVPGGSASISCKASQSLVYSDGKTYLYWLRQKPGQSPQRLIYQVSNRPSGVPDRFTGSGSGTDFTLKISGVKAEDAGVYYCAQDTYSTKTFGQGTKLEIK	koff	s⁻¹	0.00714
29F10 scFv (scFv, part only; not given: scFv linker, domain order, c-myc tag, V domains shown, not shown: another chain or arm of the molecule; large carriers; small tags and cut ends) VH: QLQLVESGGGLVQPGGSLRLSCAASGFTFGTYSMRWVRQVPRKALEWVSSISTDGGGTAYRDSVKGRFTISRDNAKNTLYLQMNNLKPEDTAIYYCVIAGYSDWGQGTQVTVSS VL: DVVLTQTPGSLSVVPGEPASVSCKASQSLVHPDGKTYLYWLLQKPGQSPQRLIYQVSNRGSGVPDRFTGSGSGTDFTLEISGVKAEDAGVYYCAQGTYWPKTFGQGTKLEIK	koff	s⁻¹	0.059
